Numbers sourced from patent US6780875B2.

Structures can show the parent of a compound that is named as a salt.
Would you kindly list melting point for each of these compounds?

Tell me the measured melting point of C[C@H](NC(=O)c1c(CN2CCN(CCc3ccccc3)CC2)c(-c2ccccc2)nc2ccccc12)C1CCCCC1 (as salt: HCl) [Example 5] , please. 168 to 171 °C

Next entry: CC(C)N1CCN(Cc2c(-c3ccccc3)nc3ccccc3c2C(=O)N[C@@H](C)C2CCCCC2)CC1 (as salt: hydrochloride) [Example 4] 180 to 183 °C

Item: C[C@H](NC(=O)c1c(CN2CCN(C(=O)CCC(=O)O)CC2)c(-c2ccccc2)nc2ccccc12)C1CCCCC1 [Example 83] 208 to 209 °C

###

Assay Readout: melting point

Item under review: CC[C@H](NC(=O)c1c(CN2CCC3(CC2)C(=O)NCN3c2ccccc2)c(-c2ccccc2)nc2ccccc12)c1ccccc1 . Reported melting point? 242 to 245 °C

And the next one, CNC(=NC#N)N1CCN(Cc2c(-c3ccccc3)nc3ccccc3c2C(=O)N[C@@H](C)C2CCCCC2)CC1 ? 175 to 180 °C

Let us now turn to CC(C)[C@H](NC(=O)c1c(CN2CCN(C(=O)c3ccccc3C(=O)O)CC2)c(-c2ccccc2)nc2ccccc12)c1ccccc1 189 to 191 °C

And what about the molecule C[C@H](NC(=O)c1c(CN2CCN(C(=O)c3ccccc3C(=O)O)CC2)c(-c2ccccc2)nc2ccccc12)C1CCCCC1 ? 209 to 211 °C

###

Would you kindly list melting point for each of these compounds?

Recorded melting point of CC(C)C(=O)N1CCN(Cc2c(-c3ccccc3)nc3ccccc3c2C(=O)N[C@@H](C)C2CCCCC2)CC1 , please. 149 to 151 °C

Entry to check: CC[C@H](NC(=O)c1c(C(c2ccccc2)(N2CCCCC2)N(C)C(C)=O)c(-c2ccccc2)nc2ccccc12)c1ccccc1 (some centres unmarked) 100 °C (dec.)

Then CNC(=S)N1CCN(Cc2c(-c3ccccc3)nc3ccccc3c2C(=O)N[C@@H](C)C2CCCCC2)CC1 ? 204 to 206 °C

// query: CC[C@H](NC(=O)c1c(CN2CCC(N3CCC(O)CC3)CC2)c(-c2ccccc2)nc2ccccc12)c1ccccc1 166 to 168 °C

Query C[C@H](NC(=O)c1c(CN2CCN(c3c(N4CCCC4)c(=O)c3=O)CC2)c(-c2ccccc2)nc2ccccc12)C1CCCCC1 next 170 to 180 °C

Record: C[C@H](NC(=O)c1c(CN2CCN(C(=O)CN3CCN(C)CC3)CC2)c(-c2ccccc2)nc2ccccc12)C1CCCCC1 162 to 163 °C

Next: CC[C@H](NC(=O)c1c(CN2CCC(N3CCN(C)CC3)CC2)c(-c2ccccc2)nc2ccccc12)c1ccccc1 85 to 100 °C

Lookup CC[C@H](NC(=O)c1c(CN2CCC(N3CCNC3=O)CC2)c(-c2ccccc2)nc2ccccc12)c1ccccc1 240 to 242 °C
